Target Under Test: mGAT4 (Mus musculus, UniProt P31650)
Construct: expressed in transfected cells; host or cells: HEK-293
Sequence (P31650 whole entry): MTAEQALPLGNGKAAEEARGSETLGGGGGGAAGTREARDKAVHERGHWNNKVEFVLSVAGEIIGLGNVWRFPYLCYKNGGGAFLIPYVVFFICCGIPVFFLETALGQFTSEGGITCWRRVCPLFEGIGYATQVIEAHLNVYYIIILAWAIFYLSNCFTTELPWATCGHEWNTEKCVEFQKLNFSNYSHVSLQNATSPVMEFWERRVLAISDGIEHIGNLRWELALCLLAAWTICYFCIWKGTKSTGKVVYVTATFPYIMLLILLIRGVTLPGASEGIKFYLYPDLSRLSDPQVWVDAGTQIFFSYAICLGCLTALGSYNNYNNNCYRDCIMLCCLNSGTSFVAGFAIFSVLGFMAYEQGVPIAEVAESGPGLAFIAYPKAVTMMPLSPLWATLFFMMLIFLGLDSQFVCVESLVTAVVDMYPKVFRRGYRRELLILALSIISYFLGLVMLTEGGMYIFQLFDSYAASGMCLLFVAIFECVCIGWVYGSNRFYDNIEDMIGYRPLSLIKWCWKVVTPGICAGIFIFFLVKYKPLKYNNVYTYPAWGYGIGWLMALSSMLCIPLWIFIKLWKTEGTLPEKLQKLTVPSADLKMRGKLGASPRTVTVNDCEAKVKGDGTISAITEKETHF
Assay Text: [3H]GABA uptake assay in HEK-293 cells stably expressing mGAT4
Assay type: cell-based
Measurement Setup: [3H]GABA uptake; read-out: pIC50 ± SEM mGAT4 (converted)
Parameter IC50: see the listing below.

# Compound, IC50 [µM]
rows = [
    ("CCC(C(=O)NCc1ccccc1)N(C)CCC=C(c1sccc1C)c1sccc1C (centres unmarked) [Compound 68]", 12.9),
    ("CCC(C(=O)NCc1ccccc1)N(C)CCON=C(c1ccccc1)c1ccccc1 (centres unmarked) [Compound 66a]", 13.8),
    ("Cc1ccsc1C(=C1CCN([C@H](C[C@@H](C)O)C(=O)NCc2ccc(F)cc2)CC1)c1sccc1C (relative stereo) [2RS,4RS-37c]", 19.5),
    ("CCOC(=O)C(C)N(C)CCC=C(c1sccc1C)c1sccc1C (centres unmarked) [Compound 73]", 52.5),
    ("Cc1ccsc1C(=C1CCN([C@H](C[C@H](C)O)C(=O)NCc2ccccc2)CC1)c1sccc1C (relative stereo) [2RS,4SR-37a]", 27.5),
    ("CCOC(=O)[C@H](C)N(C)CCC=C1c2ccccc2C=Cc2ccccc21 [Compound 71]", 63.1),
    ("Cc1ccsc1C(=C1CCN(C(CO)C(=O)NCc2ccc(F)cc2)CC1)c1sccc1C (centres unmarked) [Compound 54c]", 28.8),
    ("CC(O)CC(C(=O)NCc1ccccc1)N1CCC(=C2c3ccccc3-c3ccccc32)CC1 (centres unmarked) [2RS,4SR-41a]", 72.4),
    ("Cc1ccc(CNC(=O)[C@@H](C[C@@H](C)O)N(C)CCC=C2c3ccccc3CCc3ccccc32)cc1 (relative stereo) [Compound 2RS,4RS-39c]", 4.37),
    ("CN(CCC=C1c2ccccc2CCc2ccccc21)C(CO)C(=O)NCc1ccc(F)cc1 (centres unmarked) [Compound 56d]", 12.3),
    ("CC(O)CC(C(=O)NCc1ccc(F)cc1)N(C)CCC=C1c2ccccc2CCc2ccccc21 (centres unmarked) [2RS,4RS-39a]", 25.1),
    ("CC(C(=O)NCc1ccccc1)N(C)CCON=C(c1ccccc1)c1ccccc1 (centres unmarked) [Compound 65]", 26.3),
    ("CC(=O)NCCC(C(=O)NCc1ccccc1Cl)N(C)CCON=C(c1ccccc1)c1ccccc1 (centres unmarked) [Compound 51a]", 12.6),
    ("CC(O)CC(C(=O)NCc1ccccc1)N(C)CCON=C(c1ccccc1)c1ccccc1 (centres unmarked) [2RS,4SR-45]", 39.8),
]

----------
Target Under Test: mGAT1 (Mus musculus)
Construct: expressed in transfected cells; host or cells: HEK-293
Assay Text: [3H]GABA uptake assay in HEK-293 cells stably expressing mGAT1
Assay type: cell-based
Measurement Setup: [3H]GABA uptake; read-out: pIC50 ± SEM mGAT1 (converted)

# Compound, Unit Annotation, IC50
measured = [
    ("CC(O)CC(C(=O)NCc1ccccc1)N(C)CCON=C(c1ccccc1)c1ccccc1 (centres unmarked) [2RS,4RS-45]", "µM", 43.7),
    ("Cc1ccsc1C(=CCCN(C)C(C)C(=O)NCc1ccccc1)c1sccc1C (centres unmarked)", "µM", 24.5),
    ("Cc1ccsc1C(=C1CCN([C@H](C[C@@H](C)O)C(=O)NCc2ccc(F)cc2)CC1)c1sccc1C (relative stereo) [2RS,4RS-37c]", "µM", 17.8),
    ("CN(CCON=C(c1ccccc1)c1ccccc1)C(CCN)C(=O)NCc1ccccc1Cl (centres unmarked) [Compound 50a]", "µM", 20),
    ("CN(CCON=C(c1ccccc1)c1ccccc1)C(CCO)C(=O)NCc1ccccc1 (centres unmarked) [Compound 47a]", "µM", 16.6),
    ("CC(O)CC(C(=O)NCc1ccccc1)N1CCC(=C2c3ccccc3CCc3ccccc32)CC1 (centres unmarked) [2RS,4RS-43a]", "µM", 17),
    ("CN(CCON=C(c1ccccc1)c1ccccc1)C(CCN)C(=O)NCc1ccc(Cl)c(Cl)c1 (centres unmarked) [Compound 50b]", "µM", 12.3),
    ("CN(CCC=C1c2ccccc2C=Cc2ccccc21)C(CO)C(=O)NCc1ccccc1Cl (centres unmarked) [Compound 55b]", "µM", 25.7),
]

----------
Target Under Test: mGAT2 (Mus musculus, UniProt P31651)
Construct: expressed in transfected cells; host or cells: HEK-293
Sequence (P31651 whole entry): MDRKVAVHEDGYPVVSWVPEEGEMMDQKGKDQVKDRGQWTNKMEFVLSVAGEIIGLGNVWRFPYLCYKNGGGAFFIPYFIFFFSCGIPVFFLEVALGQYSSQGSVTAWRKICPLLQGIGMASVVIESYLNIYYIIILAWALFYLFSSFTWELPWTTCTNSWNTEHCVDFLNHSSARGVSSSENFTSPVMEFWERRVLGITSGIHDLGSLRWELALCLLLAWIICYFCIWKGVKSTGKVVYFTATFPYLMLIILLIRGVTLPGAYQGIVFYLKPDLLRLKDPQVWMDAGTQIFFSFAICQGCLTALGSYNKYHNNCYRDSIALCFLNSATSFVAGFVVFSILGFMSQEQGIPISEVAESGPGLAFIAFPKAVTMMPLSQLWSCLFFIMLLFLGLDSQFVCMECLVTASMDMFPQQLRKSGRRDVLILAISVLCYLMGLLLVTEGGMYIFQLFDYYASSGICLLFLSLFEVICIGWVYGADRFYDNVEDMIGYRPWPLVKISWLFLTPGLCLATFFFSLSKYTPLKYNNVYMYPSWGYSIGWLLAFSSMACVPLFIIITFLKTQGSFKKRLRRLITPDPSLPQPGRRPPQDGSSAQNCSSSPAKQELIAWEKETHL
Assay Text: [3H]GABA uptake assay in HEK-293 cells stably expressing mGAT2
Assay type: cell-based
Measurement Setup: [3H]GABA uptake; read-out: pIC50 ± SEM mGAT2 (converted)
Please note: IC50 exactly at 20 µM is condition not met. Only values below 20 µM get condition met.

# Compound, Group Label
data = [
    ("CN(CCC=C1c2ccccc2CCc2ccccc21)C(CO)C(=O)NCc1ccc(F)cc1 (stereo not shown) [Compound 56d]", "condition not met"),
    ("Cc1ccsc1C(=C1CCN([C@H](C[C@@H](C)O)C(=O)NCc2ccccc2)CC1)c1sccc1C (relative stereo) [2RS,4RS-37a]", "condition not met"),
    ("CN(CCON=C(c1ccccc1)c1ccccc1)C(CCO)C(=O)NCc1ccc(Cl)c(Cl)c1 (stereo not shown) [Compound 47c]", "condition met"),
    ("Cc1ccc(CNC(=O)C(CO)N(C)CCC=C2c3ccccc3C=Cc3ccccc32)cc1 (stereo not shown) [Compound 55e]", "condition not met"),
    ("CN(CCON=C(c1ccccc1)c1ccccc1)C(CCO)C(=O)NCc1ccccc1Cl (stereo not shown) [Compound 47b]", "condition met"),
    ("Cc1ccsc1C(=C1CCN(C(CO)C(=O)NCc2ccccc2Cl)CC1)c1sccc1C (stereo not shown) [Compound 54b]", "condition not met"),
    ("CN(CCC=C1c2ccccc2CCc2ccccc21)C(CO)C(=O)NCc1ccccc1Cl (stereo not shown) [Compound 56b]", "condition not met"),
    ("CN(CCON=C(c1ccccc1)c1ccccc1)C(CCO)C(=O)NCc1ccccc1 (stereo not shown) [Compound 47a]", "condition not met"),
    ("CC(O)CC(C(=O)NCc1ccccc1)N(C)CCON=C(c1ccccc1)c1ccccc1 (stereo not shown) [2RS,4SR-45]", "condition not met"),
    ("Cc1ccsc1C(=C1CCN(C(CO)C(=O)NCc2ccccc2)CC1)c1sccc1C (stereo not shown) [Compound 54a]", "condition met"),
    ("CN(CCC=C1c2ccccc2CCc2ccccc21)C(CO)C(=O)NCc1ccc(Cl)cc1 (stereo not shown) [Compound 56c]", "condition not met"),
    ("O=C(NCc1ccccc1)C(CO)N1CCC(=C2c3ccccc3-c3ccccc32)CC1 (stereo not shown) [Compound 57]", "condition met"),
    ("CC(O)CC(C(=O)NCc1ccccc1)N1CCC(=C2c3ccccc3-c3ccccc32)CC1 (stereo not shown) [2RS,4SR-41a]", "condition not met"),
    ("O=C(NCc1ccccc1)C(CO)N1CCC(=C2c3ccccc3CCc3ccccc32)CC1 (stereo not shown) [Compound 58]", "condition not met"),
    ("CC(O)CC(C(=O)NCc1ccccc1)N1CCC(=C2c3ccccc3-c3ccccc32)CC1 (stereo not shown) [2RS,4RS-41a]", "condition not met"),
]

----------
Target Under Test: mGAT1 (Mus musculus)
Construct: expressed in transfected cells; host or cells: HEK-293
Assay Text: competitive MS binding assay with NO711 as unlabeled marker (LC-ESI-MS/MS)
Measurement Setup: MS binding assay; read-out: pKi ± SEM mGAT1 (converted)

# Compound, Ki
records = [
    ("Cc1ccc(CNC(=O)C(CO)N(C)CCC=C2c3ccccc3C=Cc3ccccc32)cc1 (stereo not shown) [Compound 55e]", "29.5 µM"),
    ("C[C@@H](C(=O)O)N(C)CCC=C1c2ccccc2C=Cc2ccccc21 [Compound 74]", "28.8 µM"),
    ("CN(CCON=C(c1ccccc1)c1ccccc1)C(CCN)C(=O)NCc1ccccc1Cl (stereo not shown) [Compound 50a]", "33.1 µM"),
    ("CN(CCON=C(c1ccccc1)c1ccccc1)C(CCN)C(=O)NCc1ccc(Cl)c(Cl)c1 (stereo not shown) [Compound 50b]", "33.1 µM"),
]

----------
Target Under Test: mGAT2 (Mus musculus)
Construct: expressed in transfected cells; host or cells: HEK-293
Assay Text: [3H]GABA uptake assay in HEK-293 cells stably expressing mGAT2
Assay type: cell-based
Measurement Setup: in the presence of 100 μM inhibitor

# Molecule, remaining [3H]GABA uptake mGAT2
rows = [
    ("C[C@@H](C(=O)OCc1ccccc1)N(C)CCC=C1c2ccccc2C=Cc2ccccc21 [Compound 72]", "100 μM: 63%"),
    ("CC(O)CC(C(=O)NCc1ccc(F)cc1)N1CCC(=C2c3ccccc3CCc3ccccc32)CC1 (centres unmarked) [2RS,4SR-43b]", "100 μM: 80%"),
    ("Cc1ccsc1C(=C1CCN(C(CC(C)O)C(=O)NCc2ccccc2Cl)CC1)c1sccc1C (centres unmarked) [2RS,4SR-37b]", "100 μM: 69%"),
    ("CCC(C(=O)NCc1ccccc1)N1CCC(=C(c2sccc2C)c2sccc2C)CC1 (centres unmarked) [Compound 64a]", "100 μM: 108%"),
    ("Cc1ccsc1C(=CCCN(C)C(C)C(=O)O)c1sccc1C (centres unmarked) [Compound 75]", "100 μM: 59%"),
    ("CCC(C(=O)NCc1ccccc1Cl)N(C)CCON=C(c1ccccc1)c1ccccc1 (centres unmarked) [Compound 66b]", "100 μM: 59%"),
    ("CCOC(=O)C(C)N(C)CCC=C(c1sccc1C)c1sccc1C (centres unmarked) [Compound 73]", "100 μM: 52%"),
    ("C[C@@H](C(=O)O)N(C)CCC=C1c2ccccc2C=Cc2ccccc21 [Compound 74]", "100 μM: 55%"),
]
